Tested on: HL-60(TB) leukemia
Protocol description: NCI tumour cell line growth inhibition, 48 h
Property name: TGI

Requested read-out TGI, target or system HL-60(TB) leukemia, entry COc1ccc(C(=O)C(CC2C(=O)NC(=O)NC2=O)c2ccc(OC)cc2)cc1 (stereo not given)
> 100 µM

Lookup: TGI / HL-60(TB) leukemia / O=c1[nH]c2nc(NC3CCOCC3)ncc2cc1Oc1ccc(F)cc1F
> 25 µM

Could you share what TGI was measured for Cc1cc(N(CCC#N)CCC#N)ccc1N=Nc1ccc(Br)cc1 , tested on HL-60(TB) leukemia?
> 100 µM

Which measured TGI belongs to C/C(=N\NC(=S)N(C)C)c1cccnn1 , tested on HL-60(TB) leukemia?
> 100 µM

// map Cn1cc(-c2ccc3nnc(Sc4ccc5ncccc5c4)n3n2)cn1 to recorded TGI (system: HL-60(TB) leukemia)
> 100 µM

* * *

System: SK-MEL-28 melanoma
Protocol description: NCI tumour cell line growth inhibition, 48 h
Where a SMILES comes first, the peptide text is derived from it. [ ]: non-standard residue; d: D form. The star is where a group is joined. Bn2Val = CC(C)[C@@H](C(=O)*)N(Cc1ccccc1)Cc1ccccc1; NH(4-Cl-benzyl) = Clc1ccc(CN*)cc1; NMeV = CN[C@H](C(=O)O)C(C)C; dNMeA = CN[C@H](C)C(=O)O
Can you tell me TGI for the items I'm about to list?
The figure you give is taken to be in µM; do not add the unit.

Give the reported TGI for COC(=O)C1=C(C(=O)OC)C2(C)C=CC1O2 (centres undefined) (system: SK-MEL-28 melanoma).
29.5

# returns recorded TGI (system: SK-MEL-28 melanoma) for CC(C)[C@H](NC(=O)[C@H](C(C)C)N(Cc1ccccc1)Cc1ccccc1)C(=O)N(C)[C@H](C(=O)N1CCC[C@H]1C(=O)N(C)[C@H](C)C(=O)NCc1ccc(Cl)cc1)C(C)C (Bn2Val-V[NMeV]P[dNMeA]-{NH(4-Cl-benzyl)})
36.3

Enter reported TGI observed with SK-MEL-28 melanoma for Cc1cc(O)c(C2=NN(c3ccc(S(N)(=O)=O)cc3)C(c3ccc(Cl)cc3)C2)c(C)c1Cl (centres undefined)
23.9

# value lookup — system SK-MEL-28 melanoma, readout TGI, item COc1cc2c(cc1OC)C(=O)/C(=C/c1cc(-c3ccc4c(c3)OCO4)n[nH]1)C2
3.4

Lookup: TGI / SK-MEL-28 melanoma / CCN(c1cc(-c2ccc(CN3CCOCC3)cc2)cc(C(=O)NCc2c(C)cc(C)[nH]c2=O)c1C)C1CCOCC1
47.7

For the record CC(=O)OCC(=O)[C@@]12OC(C)(C)O[C@@H]1C[C@H]1[C@@H]3CC(C=O)=C4C=C(OCCCl)CC[C@]4(C)[C@@]3(F)[C@@H](O)C[C@@]12C , what value of TGI is listed for SK-MEL-28 melanoma?
80.1

* * *

System: LOX IMVI melanoma
Protocol description: NCI tumour cell line growth inhibition, 48 h
I'd be grateful if you could share measured TGI for these entries.

What TGI value was documented for this compound, c1ccc2c(c1)SCCCSCCSCCCS2 ?
> 100 µM

I have this compound here, COc1cc(C2c3cc4c(cc3C3OC[C@@H]2C3CO)OCO4)cc(OC)c1OC (stereo partly drawn) , and I need its recorded TGI.
> 100 µM

Need TGI of CC(=O)Nc1ccc(OC/C(N)=N/NC(=O)c2ccncc2)cc1 , thanks.
> 100 µM

* * *

System: SK-MEL-28 melanoma
Protocol description: NCI tumour cell line growth inhibition, 48 h
Provide the recorded TGI for the entries that follow.

Fill in: TGI of Cc1c(-c2ccnc(N)n2)c2c(n1Cc1ccccc1)C(=O)c1ccccc1C2=O is ___
> 100 µM

// query TGI value for entry c1ccc(/C(=N/Nc2ccncn2)c2ccccn2)cc1
> 100 µM

Can you share its TGI? I mean this compound: O=c1cc(N/N=C/c2ccc(F)cc2)c2cc(Cl)ccc2[nH]1
> 100 µM

Cited source: PubChem BioAssay (NCI)
